Organism: Rattus norvegicus
procedure-details: Binding affinity to rat thyroid hormone receptor
property: log(activity)

Solved entries:
- compound: "NC(Cc1cc(I)c(Oc2ccc(O)c(I)c2)c(I)c1)C(=O)O (racemic)"
  log(activity): 2.74
- compound: "NC(Cc1cc(I)c(Oc2cc(Cl)c(O)c(Cl)c2)c(I)c1)C(=O)O (racemic)"
  log(activity): -0.05
- compound: "NC(Cc1cc(Br)c(Oc2cc(I)c(O)c(I)c2)c(Br)c1)C(=O)O (racemic)"
  log(activity): 1.1
- compound: "NC(Cc1cc(I)c(Oc2cc(F)c(O)c(I)c2)c(I)c1)C(=O)O (racemic)"
  log(activity): 1.45

[I] NC(Cc1cc(I)c(Oc2cc(Br)c(O)c(Br)c2)c(I)c1)C(=O)O (racemic)
[II] NC(Cc1cc(I)c(Oc2ccc(O)c(F)c2)c(I)c1)C(=O)O (racemic)
Qu. Lab note: check whether I or II shows the higher recorded log(activity). Select an item and report its label.
Ans. I
(I: 1, II: 0.38)
